target: T1, human OT7T175 (metastin receptor) (human, UniProt Q969F8 1-398); experiment: FMAT competition with Cy-5-labeled metastin (40-54), hOT7T175-expressed CHO cells
T1 construct: expressed on CHO cells (hOT7T175-expressed CHO cells; hOT7T175/CHO); also called hOT7T175; h0T7T175
T1 sequence (Q969F8 whole entry L364H): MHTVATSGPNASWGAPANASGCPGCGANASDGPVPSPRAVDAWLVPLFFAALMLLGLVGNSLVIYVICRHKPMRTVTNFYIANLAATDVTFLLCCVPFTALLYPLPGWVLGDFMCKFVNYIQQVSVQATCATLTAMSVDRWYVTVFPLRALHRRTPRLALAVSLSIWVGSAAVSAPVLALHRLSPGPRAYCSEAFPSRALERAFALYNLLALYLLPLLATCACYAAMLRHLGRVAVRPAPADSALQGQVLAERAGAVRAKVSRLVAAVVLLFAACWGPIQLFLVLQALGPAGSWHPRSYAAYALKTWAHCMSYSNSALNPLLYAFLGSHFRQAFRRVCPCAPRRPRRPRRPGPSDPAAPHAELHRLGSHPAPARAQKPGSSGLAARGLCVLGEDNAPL
Square brackets hold non-standard residues; d marks the D form. Ends that are not written are not given here. Phe(4-NH2) = Nc1ccc(C[C@H](N)C(=O)O)cc1; Arg(Me) = CNC(=N)NCCC[C@H](N)C(=O)O; azaGly = NNC(=O)O
Listing: IC50 of selected binders
Just the number in nM, nothing appended.

Look over these answered cases.
>>> result("[dY]NANSFGL[Arg(Me)]F-NH2 (N-terminus assumed; SMILES CNC(=N)NCCC[C@H](NC(=O)[C@H](CC(C)C)NC(=O)CNC(=O)[C@H](Cc1ccccc1)NC(=O)[C@H](CO)NC(=O)[C@H](CC(N)=O)NC(=O)[C@H](C)NC(=O)[C@H](CC(N)=O)NC(=O)[C@H](N)Cc1ccc(O)cc1)C(=O)N[C@@H](Cc1ccccc1)C(N)=O) [Compound No. 169: [D-Tyr1,Ala3,Arg(Me)9]MS10]")
160
>>> result("[dY]WNSFGL[Arg(Me)]F-NH2 [Compound No. 217: des(1)-[D-Tyr2,Arg(Me)9]MS10]")
250
>>> result("{D‑Glucuronyl}-NSF[azaGly]L[Arg(Me)]F-NH2 [Compound No. 328: des(1-3)-D-Glucuronyl-[AzaGly7,Arg(Me)9]MS10]")
470
>>> result("[dA]NWNSF[azaGly]L[Arg(Me)]F-NH2 [Compound No. 259: [D-Ala1,AzaGly7,Arg(Me)9]MS10]")
250

Proceed to the following item.
Q) Return reported IC50; argument: [dY]N[Phe(4-NH2)]NSF[azaGly]L[Arg(Me)]F-NH2 [Compound No. 250: [D-Tyr1,Phe(4NH2) 3,AzaGly7,Arg(Me)9]MS10]
A) 3.7
